- experiment-notes: antimalarial activity against Dd2 strain (AID 2302);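 further: 0% = DMSO untreated growth and 100% = chloroquine plus artemisinin killed control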
- test-conditions: P. falciparum Dd2 in RBCs, LDH growth readout, 72 h; at 2 µM; hits give high values
Activity calls are given as the source filed them.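 How the source made its calls: active means growth inhibition above 50% at the single 2 µM test dose, taken to imply half-maximal potency below 2 µM; inactive means the rest.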
measurement-name: growth inhibition

[
  {
    "molecule": "CN(C)Cc1cccc(-c2ccc(NC(=O)c3ccc4c(=O)n(Cc5ccoc5)cnc4c3)cc2)c1",
    "measurement-name": "growth inhibition",
    "reported-value": "9% (inactive)"
  },
  {
    "molecule": "CCN(CC)CCCN(CCCN(CC)CC)c1cc(C)nc(Nc2ccc3cc(Br)ccc3c2)n1",
    "measurement-name": "growth inhibition",
    "reported-value": "73% (active)"
  },
  {
    "molecule": "O=C(/C=C/c1c[nH]c2ccccc12)NCCCCCN1CCC(c2c[nH]c3ccccc23)CC1",
    "measurement-name": "growth inhibition",
    "reported-value": "0% (inactive)"
  }
]

Which growth inhibition value belongs to O=C(/C=C/c1ccc(Cl)c(Cl)c1)NCCCCN1CCCN(C(=O)Nc2ccc(Cl)c(Cl)c2)CC1 ?
1% (inactive)

Which growth inhibition value belongs to CCCOc1cc(NC(=O)Nc2ccnc3ccccc23)cc(OCCC)c1 ?
98% (active)

Which growth inhibition value belongs to COc1ccc(C(=O)N2CCN(c3ccc([N+](=O)[O-])c(NC4CC4)c3)CC2)cc1Br ?
68% (active)

Which growth inhibition value belongs to COc1cccc(-c2csc(C(=O)NCC3CCN(Cc4ccc(C(C)C)cc4)C3)c2)c1 (centres undefined) ?
9% (inactive)

Which growth inhibition value belongs to NS(=O)(=O)c1cccc(-c2ccc3ncc(N4CCOCC4)nc3c2)c1 ?
74% (active)

Which growth inhibition value belongs to Cc1cc(NCC(C)C)c2[nH]nc(-c3ccccc3)c2n1 ?
30% (inactive)

Which growth inhibition value belongs to O=C(NCc1cccc(Br)c1)c1ccc(CNC2CCN(Cc3ccccc3)CC2)cc1 ?
49% (inactive)

Which growth inhibition value belongs to Fc1ccc(-c2cc(NCCCn3ccnc3)nc(-c3cccnc3)n2)cc1 ?
70% (active)

Which growth inhibition value belongs to Nc1c2ccccc2nc2cc(Cl)ccc12 ?
86% (active)

Which growth inhibition value belongs to Cc1[nH]c(C)c(-c2ccc(C(=O)c3ccccc3)cc2)c(=O)c1Br ?
96% (active)

The reported numbers originate from PubChem BioAssay.
